# maps each entry to its growth
Tested on: MCF7 breast
Assay: NCI-60 one-dose screen, 48 h (100 = growth as untreated, 0 = no growth, -100 = all killed)
Settings: 10 µM
This is part of a sample that, as a whole, favours compounds with a hit. Of some 83,000 tested, about 20% had one in any assay.
quantityKind: growth (%)

- inputSmiles: "C[C@@H]1CCC/C=C/[C@H]2C[C@@H](O)C[C@@H]2[C@@H](O)/C=C/C(=O)O1"
  targetSystem: "MCF7 breast"
  quantityKind: "growth"
  reportedMeasurement: 10.8
- inputSmiles: "COc1cc(OC)c(S(=O)(=O)N(CCCl)CCCl)cc1C(=O)/C=C/c1ccc(Cl)cc1"
  targetSystem: "MCF7 breast"
  quantityKind: "growth"
  reportedMeasurement: 15.8
- inputSmiles: "COc1cc2c(O[C@@H]3OC[C@H](OC(C)=O)[C@H](OC(C)=O)[C@H]3O)c3c(c(-c4ccc5c(c4)OCO5)c2cc1OC)C(=O)OC3"
  targetSystem: "MCF7 breast"
  quantityKind: "growth"
  reportedMeasurement: 36.9

* * *

Test system: HL-60(TB) leukemia
Experiment: NCI-60 one-dose screen, 48 h
Settings: 10 µM unless noted
About 83,000 compounds went through this panel and 20% of them were active in at least one assay; those are over-represented in the sample as a whole. The source made the active and inactive calls. How the source made its calls: active means growth percent below 10; inactive means the rest.
Classes used: active, inactive

- inputSmiles: "N/C(=N\\C(N)=N\\c1nc2ccccc2s1)c1cccc(F)c1"
  answerLabel: "inactive"
- inputSmiles: "N#Cc1c(-c2cccs2)cc(-c2cnccn2)nc1SCC(=O)c1ccc(F)cc1"
  answerLabel: "inactive"
- inputSmiles: "COc1cc(-c2noc(C[C@@H](NC(=O)OCc3ccccc3)C(C)C)n2)cc(OC)c1OC"
  answerLabel: "inactive"
- inputSmiles: "N/C(=N\\c1nc2ccc([N+](=O)[O-])cc2s1)C(Cl)(Cl)Cl"
  answerLabel: "inactive"
- inputSmiles: "CCOP(=O)(OCC)OC[C@]12CCC(C)(C)C[C@H]1C1=CC[C@@H]3[C@@]4(C)CC[C@H](OP(=O)(OCC)OCC)C(C)(C)[C@@H]4CC[C@@]3(C)[C@]1(C)CC2"
  answerLabel: "active"
- inputSmiles: "CCN(CC)c1ccc(C=O)c(OCc2cn(CC(=O)Nc3ccc(Cl)cc3)nn2)c1"
  answerLabel: "inactive"
- inputSmiles: "C#Cc1nc(C2=C(C)C(=N\\O)/C(=N/O)C2)cs1"
  answerLabel: "inactive"
- inputSmiles: "O=C(NCCCNc1cc(-c2cn(-c3ccccc3)nc2-c2cccc(O)c2)ccn1)Nc1cccc(C(F)(F)F)c1"
  answerLabel: "inactive"
- inputSmiles: "CN1c2ccccc2Sc2cc(C=C(C#N)C#N)ccc21"
  answerLabel: "inactive"

* * *

Tested on: HL-60(TB) leukemia
Test: NCI-60 one-dose screen, 48 h (100 = growth as untreated, 0 = no growth, -100 = all killed)
Conditions: 10 µM unless noted
This is part of a sample that, as a whole, favours compounds with a hit. Of some 83,000 tested, about 20% had one in any assay.
Please use the following growth ranges when assigning a class: lowest: < 10%; middle: ≥ 10% and < 90%; highest: ≥ 90%

- molecule: "O=C1c2c(c3c4cccnc4[nH]c3c3ccc4ccccc4c23)C(=O)N1CCN1CCNCC1"
  answerLabel: "middle"
- molecule: "CCOC(=O)c1c(Nc2ccccc2)nn2c(-c3ccc(Cl)cc3)ccnc12"
  answerLabel: "middle"
- molecule: "CCCn1cnc2c(c1=N)C(c1ccc(OC)cc1)c1sc3c(CC)cccc3c1O2 (centres undefined)"
  answerLabel: "lowest"
- molecule: "O=C(CCCCCCNC(=O)C(O)(O)C(F)(F)F)Nc1ccc(Br)cc1"
  answerLabel: "middle"
- molecule: "O=C(c1cccc(F)c1)n1ccc2cc(NC(=S)Nc3cccnc3)ccc21"
  answerLabel: "middle"
- molecule: "O=C(CCCCCCN1CC(=O)N2[C@@H](c3ccccc3Br)c3[nH]c4ccccc4c3C[C@H]2C1=O)NO"
  answerLabel: "lowest"
- molecule: "O=S(=O)(Nc1ccc(I)cc1Cl)c1ccc(-c2cnc(C3CC3)o2)cc1"
  answerLabel: "lowest"
- molecule: "CCOc1ccc2nc(NC(=O)Nc3ccccc3C)sc2c1"
  answerLabel: "middle"
- molecule: "COc1ccccc1-n1cc(C#N)c(N)c1C(=O)c1ccc(C)cc1"
  answerLabel: "middle"
- molecule: "COc1ccc([C@H]2c3[nH]c4ccccc4c3C[C@H]3C(=O)N(C4CCN(Cc5c(Cl)cccc5Cl)CC4)CC(=O)N23)c(OC)c1"
  answerLabel: "highest"
- molecule: "Oc1ccc(CSc2nnc(-c3ccccc3)n2-c2ccccc2)c2cccnc12"
  answerLabel: "lowest"
- molecule: "O=C(O)c1ccc(-n2cc(CNc3ccc(Cl)cc3)c(-c3ccc(F)cc3)n2)cc1"
  answerLabel: "highest"
- molecule: "CC1=C2C(=C[C@@](C)(COS(C)(=O)=O)[C@@H]2O)C(=O)[C@](C)(O)C12CC2"
  answerLabel: "lowest"
- molecule: "CCN(CC)c1ccc2cc(C(=O)NCCOCCOCCOCCn3cc(CCC(=O)Nc4ccc(C(=O)c5ccc(NC(=O)OC(C)(C)C)cc5)cc4)nn3)c(=O)oc2c1"
  answerLabel: "middle"
- molecule: "CCOC(=O)c1nn(-c2ccccc2)c(=O)c2c(N)c(C#N)c(-c3cccs3)cc12"
  answerLabel: "highest"
- molecule: "O=c1c2ccccc2cc2n1CCN=C2c1ccccc1"
  answerLabel: "highest"
